FYI, the data here is from PubChem BioAssay (NCI).

System: A549 NSCLC
Protocol Description: NCI tumour cell line growth inhibition, 48 h
Measured Quantity: TGI

Q. Need TGI of OC/C=C(\I)CCCOCOCc1ccccc1 , thanks.
A. > 100 µM

Q. Consider the molecule O=C1O/C(=C(/Br)c2ccc(Cl)c(Cl)c2)c2ccccc21 and give its measured TGI.
A. > 10 µM

Q. Using the record for Cc1ccc2c(c1)C1(C)OC(C=CC1=O)O2 (stereo unspecified) , report its TGI.
A. 10.1 µM

Q. // returns reported TGI for input CC(=NNC(=S)Nc1ccc(C)cc1)c1cccc(C(C)=NNC(=S)Nc2ccc(C)cc2)n1
A. > 100 µM

Q. Fill in the blank: the reported TGI of COc1cc2c(cc1OC)CCc1cc(OC)c(OC)cc1CC2 is ____.
A. > 100 µM

Q. Given the molecule Cc1cc(=O)n2nc(CN3CCCCC3)sc2n1 , what is its reported TGI?
A. > 100 µM

Q. Quick check: TGI of CCC(=O)c1c(C(F)(F)F)n([O-])c2ccc(C)cc2[n+]1=O ?
A. > 50 µM

Q. Which TGI is listed for Cc1cccc2c(N)c3cccc(C(=O)NCC[N+](C)(C)Cc4c([N+](=O)[O-])ncn4C)c3nc12 ?
A. > 47.9 µM

Q. Recorded TGI for CC1(C)N=C(N)N=C(N)N1c1ccc(OCc2ccc(S(=O)(=O)F)c(Cl)c2)c(Cl)c1 , please?
A. > 100 µM

Q. Given CN(C)CCCN1c2ccccc2Sc2cnccc21 , state its recorded TGI.
A. > 100 µM

Q. Tell me the measured TGI of COc1cccc(N2C(=O)[C@H]3CC(C)c4c([nH]c5ccccc45)[C@H]3C2=O)c1 (stereo partly specified) , please.
A. > 100 µM
